Values were extracted from patent US20250313563A1.

- TESTED_TARGET: GSK3α (GST-full length GSK3α) (Homo sapiens (Human), UniProt P49840)
- Sequence (P49840 whole entry): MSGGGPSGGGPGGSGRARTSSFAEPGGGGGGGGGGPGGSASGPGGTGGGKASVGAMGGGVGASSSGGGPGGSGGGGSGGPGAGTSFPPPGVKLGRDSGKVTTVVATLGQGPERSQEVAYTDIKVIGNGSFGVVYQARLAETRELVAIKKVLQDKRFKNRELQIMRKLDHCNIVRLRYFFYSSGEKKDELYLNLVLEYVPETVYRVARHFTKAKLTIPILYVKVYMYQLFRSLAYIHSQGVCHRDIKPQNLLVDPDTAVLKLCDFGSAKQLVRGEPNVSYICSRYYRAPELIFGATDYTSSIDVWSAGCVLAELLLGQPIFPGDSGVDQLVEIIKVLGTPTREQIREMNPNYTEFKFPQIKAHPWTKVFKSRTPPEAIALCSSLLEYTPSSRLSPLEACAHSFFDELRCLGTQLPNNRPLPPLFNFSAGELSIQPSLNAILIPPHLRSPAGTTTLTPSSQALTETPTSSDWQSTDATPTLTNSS
- ASSAY_PROCEDURE: GSK3α TR-FRET kinase assay
- Type: biochemical
- EXPERIMENTAL_PARAMETERS: 1 nM GSK3α, 4 μM ATP, 30 minute preincubation, Table 16; read-out: GSK3-A TR-FRET BIOCHEMICAL (TR-FRET)
- Procedure: TR-FRET Assay: The assay was performed in a white, 384 well, low volume, flat bottom plate (Grenier). After a 30 minute preincubation in assay buffer with the indicated concentration of compound, the kinase activity was initiated by the addition of the substrates. […] After 60 min at room temperature the plate was read on Envision plate reader using Ex: 340 nm, Em: 615 nm and […]. The normalized 665/615 Signal ratio versus log compound concentration was analyzed by XLFIT to yield IC50 values.
READOUT: IC50

Examples from the recorded data:
1) CC1(C)CC(=O)C2=C(C1)Nc1n[nH]cc1C21CCC(F)(F)CC1: ≤ 100 nM
2) CC1(C)CC(=O)C2=C(C1)Nc1n[nH]cc1C21CCN(S(=O)(=O)c2cccc(OC(F)F)c2)CC1: ≤ 100 nM
3) CC1(C)CC(=O)C2=C(C1)Nc1n[nH]cc1C21CCN(S(=O)(=O)c2ccc(C(F)F)cc2)CC1: ≤ 100 nM

Kindly indicate its recorded IC50. Item: CCc1cccc(N(C)c2cccc(C3(CC)C4=C(CC(C)(C)CC4=O)Nc4n[nH]cc43)c2)n1 (stereo not drawn)
≤ 100 nM

Kindly indicate its recorded IC50. Item: CCC1(c2cccc(-c3ccnc(C)c3)c2)C2=C(Nc3n[nH]cc31)C(F)C(C)(C)CC2=O (stereo not drawn) [Compound 946101]
1000 to 5000 nM

Kindly indicate its recorded IC50. Item: Cc1nc(C)c(S(=O)(=O)N2CCC3(CC2)C2=C(CC(C)(C)CC2=O)Nc2n[nH]cc23)s1
≤ 100 nM

Kindly indicate its recorded IC50. Item: COc1ccccc1S(=O)(=O)N1CCC2(CC1)C1=C(CC(C)(C)CC1=O)Nc1n[nH]cc12
≤ 100 nM

Kindly indicate its recorded IC50. Item: CCC1(c2cccc(N(C)c3ccnnc3)c2)C2=C(CC(C)(C)CC2=O)Nc2n[nH]cc21 (stereo not drawn)
≤ 100 nM

Kindly indicate its recorded IC50. Item: CCn1nc(C)cc1S(=O)(=O)N1CCC2(CC1)C1=C(CC(C)(C)CC1=O)Nc1n[nH]cc12
≤ 100 nM

Kindly indicate its recorded IC50. Item: CCC1(c2cccc(S(=O)(=O)C3CCCCC3)c2)C2=C(CC(C)(C)CC2=O)Nc2n[nH]cc21 (stereo not drawn) [Compound 943541]
≤ 100 nM

Kindly indicate its recorded IC50. Item: CCC1(c2cccc(-c3c(F)cncc3OC)c2)C2=C(CC(C)(C)CC2=O)Nc2n[nH]cc21 (stereo not drawn)
≤ 100 nM

Kindly indicate its recorded IC50. Item: CCC1(c2cccc(-c3ccnn3CCC(C)C)c2)C2=C(CC(C)(C)CC2=O)Nc2n[nH]cc21 (stereo not drawn) [Compound 946096]
100 to 1000 nM

Kindly indicate its recorded IC50. Item: CCC1(c2cccc(N(C)c3nccc(C)n3)c2)C2=C(CC(C)(C)CC2=O)Nc2n[nH]cc21 (stereo not drawn) [Compound 942642]
≤ 100 nM

Kindly indicate its recorded IC50. Item: CC1(C)CC(=O)C2=C(Nc3n[nH]cc3C23CCN(S(=O)(=O)c2ccccc2C(F)F)CC3)[C@@H]1F
≤ 100 nM

Kindly indicate its recorded IC50. Item: CC1(C)CC(=O)C2=C(C1)Nc1n[nH]cc1C21CCCN(S(=O)(=O)Cc2ccccc2)CC1 (stereo not drawn)
≤ 100 nM

Kindly indicate its recorded IC50. Item: CCC1(c2cccc(-c3cncn3C)c2)C2=C(CC(C)(C)CC2=O)Nc2n[nH]cc21 (stereo not drawn) [Compound 943533]
≤ 100 nM

Kindly indicate its recorded IC50. Item: CN1CC2(C1)C1=C(CC(C)(C)CC1=O)Nc1n[nH]cc12
≤ 100 nM

Kindly indicate its recorded IC50. Item: CC[C@@]1(c2cccc(-c3ccncc3CO)c2)C2=C(CC(C)(C)CC2=O)Nc2n[nH]cc21
≤ 100 nM

Kindly indicate its recorded IC50. Item: CC1(C)CC(=O)C2=C(C1)Nc1n[nH]cc1[C@@]21CCC[C@@H](C#N)C1
100 to 1000 nM

Kindly indicate its recorded IC50. Item: COc1ccc(S(=O)(=O)N2CCC3(CC2)C2=C(CC(C)(C)CC2=O)Nc2n[nH]cc23)cc1F
≤ 100 nM
